src = patent US20200283478A1

Target: T1, His-tagged, full-length PCSK9 (human, UniProt Q8NBP7 31-692)
T1 construct: The secreted protein is autocleaved into a prodomain and a catalytic/Cys-rich chain that starts at S153; also called His-PCSK9
T1 sequence (Q8NBP7 other isoform, or with tags, fused parts or gaps limits assumed): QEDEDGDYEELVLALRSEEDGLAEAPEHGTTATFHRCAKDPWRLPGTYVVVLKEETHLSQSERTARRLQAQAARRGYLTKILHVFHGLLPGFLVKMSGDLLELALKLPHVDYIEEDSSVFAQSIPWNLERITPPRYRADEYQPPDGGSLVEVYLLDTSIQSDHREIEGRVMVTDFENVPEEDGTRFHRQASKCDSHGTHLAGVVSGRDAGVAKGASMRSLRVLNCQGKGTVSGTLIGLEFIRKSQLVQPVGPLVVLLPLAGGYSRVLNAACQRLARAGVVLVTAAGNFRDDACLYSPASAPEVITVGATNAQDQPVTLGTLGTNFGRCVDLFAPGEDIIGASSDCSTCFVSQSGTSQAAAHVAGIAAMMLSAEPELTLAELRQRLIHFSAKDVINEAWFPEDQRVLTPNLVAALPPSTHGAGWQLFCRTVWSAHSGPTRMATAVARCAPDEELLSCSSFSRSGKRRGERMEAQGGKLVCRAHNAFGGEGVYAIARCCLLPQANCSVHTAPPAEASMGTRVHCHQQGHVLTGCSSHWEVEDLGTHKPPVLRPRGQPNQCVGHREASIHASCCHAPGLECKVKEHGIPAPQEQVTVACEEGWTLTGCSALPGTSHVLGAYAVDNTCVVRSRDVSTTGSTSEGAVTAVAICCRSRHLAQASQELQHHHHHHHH
Assay: TR-FRET competition; His-PCSK9, competitor EGF(A)-Fc
pIC50: −log10 of the molar value. Ends that are not written are not given here.
assay-readout: pIC50

* WNLVRIGLTR (also: further groups not given here, Structure printed only as a drawing) [Compound 171] | ≤ 4.30

Look up pIC50 for this binder: WNLVRIGLLR (also: further groups not given here, Structure printed only as a drawing) [Compound 143]
≤ 4.30

Likewise for WNLVRIGLLR (also: further groups not given here, Structure printed only as a drawing) [Compound 137] ?
≤ 4.30
